Recorded values, source PubChem BioAssay (NCI).

# Tested on: OVCAR-4 ovarian
# Assay summary: NCI-60 one-dose screen, 48 h (100 = growth as untreated, 0 = no growth, -100 = all killed)
# Measurement parameters: 10 µM unless noted
The panel holds about 83,000 compounds, 20% with a hit somewhere; the sample as a whole holds those more often.
Assay readout: growth (%)

[[record]]
compound = "NC(=O)SCC(=O)Nc1ccccc1-c1ccccc1"
result = 111

[[record]]
compound = "O=C1/C(=C/c2ccc([N+](=O)[O-])s2)Oc2ccc(Br)cc21"
result = -75.8

[[record]]
compound = "CC1=NN(c2ccccc2Cl)C(=O)/C1=C\\c1cn(S(=O)(=O)c2ccc(C)cc2)c2ccccc12"
result = 103

[[record]]
compound = "Cc1c(NCc2nnc3n(Cc4ccccc4)c(=O)c4c5c(sc4n23)CCCC5)c(=O)n(-c2ccccc2)n1C"
result = 74.7

[[record]]
compound = "CCOC(=O)C(C(C)=O)c1nc2sc3cc(Cl)ccc3n2c(=N)c1C#N (stereo not given)"
result = 77.9

[[record]]
compound = "C=C(C)[C@@H]1C/C=C(/C=O)CC[C@@H]2O[C@@]2(C)CC/C=C(\\C)CC1"
result = 122

[[record]]
compound = "Cc1c(C(N)=O)sc2ncn(CC(=O)Nc3ccc(Cl)cc3)c(=O)c12"
result = 110

[[record]]
compound = "O=C(O)c1ccc(NC(=O)c2cccc(Nc3ccnc(C(F)(F)F)c3)c2)cc1"
result = 98.1

[[record]]
compound = "Fc1ccc(-c2nnc(/C=C/c3cn(-c4ccccc4)nc3-c3ccccc3)o2)cc1"
result = 114

[[record]]
compound = "CN1CCN(Cc2ccc(NC(=O)c3[nH]ncc3Nc3ccnc4ccnn34)cc2)CC1"
result = 62.1


* * *

# Test system: NCI-H322M lung
# Assay summary: NCI-60 one-dose screen, 48 h (100 = growth as untreated, 0 = no growth, -100 = all killed)
# Measurement parameters: 10 µM unless noted
About 83,000 compounds went through this panel and 20% of them were active in at least one assay; those are over-represented in the sample as a whole.
growth less than 90% is label 1; growth greater than or equal to 90% is label 0.

[[record]]
compound = "Cc1c(C(N)=O)sc2c1c(=O)n(Cc1ccccc1)c1nnc(SCC(=O)Nc3ccc(Cl)cc3)n21"
study_target = "NCI-H322M lung"
class_name = "label 1"

[[record]]
compound = "CC(=O)Oc1ccc(C23c4ccccc4C2(OC(C)=O)c2cc(OC(C)=O)ccc23)cc1 (configuration not stated)"
study_target = "NCI-H322M lung"
class_name = "label 0"

[[record]]
compound = "CC1=CC(=O)C(C(C)=Nc2ccccc2Cl)C(=O)O1 (configuration not stated)"
study_target = "NCI-H322M lung"
class_name = "label 0"

[[record]]
compound = "COc1cc([C@@H]2c3cc4c(cc3C(O[C@@H]3O[C@@H]5CO[C@@H](c6cccs6)OC5[C@H](O)[C@H]3O)C3COC(=O)[C@@H]32)OCO4)cc(OC)c1O (some centres not stated)"
study_target = "NCI-H322M lung"
class_name = "label 1"

[[record]]
compound = "CCCCCCCCCCCCCCCCCC1=NC(C)(C)CN1CCO"
study_target = "NCI-H322M lung"
class_name = "label 1"

[[record]]
compound = "Oc1ccc(-c2nn(-c3ccccc3)cc2-c2nc3ccccc3s2)cc1"
study_target = "NCI-H322M lung"
class_name = "label 0"

[[record]]
compound = "Cc1cccc(Cl)c1NC(=O)c1ccc2nc(NC(=O)NC3CC(C)(C)NC(C)(C)C3)sc2c1"
study_target = "NCI-H322M lung"
class_name = "label 1"

[[record]]
compound = "COc1ccc(OC)c(/C=C/c2nc(=S)n(-c3ccc(Cl)cc3)[nH]2)c1"
study_target = "NCI-H322M lung"
class_name = "label 0"

[[record]]
compound = "O=c1ccn(C2OC(CO)C(O)C2F)c(=O)[nH]1 (configuration not stated)"
study_target = "NCI-H322M lung"
class_name = "label 0"

[[record]]
compound = "CCOC(=O)c1cc(-c2cccnc2)nc2c(Cl)cc(Cl)cc12"
study_target = "NCI-H322M lung"
class_name = "label 1"

[[record]]
compound = "O=c1c(O)cccn1CCCNCCCN(CCCn1cccc(O)c1=O)CCCn1cccc(O)c1=O"
study_target = "NCI-H322M lung"
class_name = "label 0"

[[record]]
compound = "Clc1ccc(CCC(Cn2ccnc2)Sc2c(Cl)cccc2Cl)cc1 (configuration not stated)"
study_target = "NCI-H322M lung"
class_name = "label 1"

[[record]]
compound = "Cn1c(=O)c2nc(SCc3ccccc3)n(C)c2n(C)c1=O"
study_target = "NCI-H322M lung"
class_name = "label 0"

[[record]]
compound = "O=C(Nc1ncc([N+](=O)[O-])s1)c1cccc([N+](=O)[O-])c1"
study_target = "NCI-H322M lung"
class_name = "label 1"

[[record]]
compound = "COc1cccc(-c2nnc(N)o2)c1"
study_target = "NCI-H322M lung"
class_name = "label 0"

[[record]]
compound = "CC12CCCCC1C(C(N)=O)C(=O)O2 (configuration not stated)"
study_target = "NCI-H322M lung"
class_name = "label 0"

[[record]]
compound = "CCC(O)C(C)(C)C (configuration not stated)"
study_target = "NCI-H322M lung"
class_name = "label 0"

[[record]]
compound = "NNC(=O)NO"
study_target = "NCI-H322M lung"
class_name = "label 0"

[[record]]
compound = "COc1ccc2nc(-c3ccc(-n4cncc4-c4ccc(OC)c(N)c4)cc3)sc2c1"
study_target = "NCI-H322M lung"
class_name = "label 0"

[[record]]
compound = "CC1=NN(c2ccccc2Cl)C(=O)/C1=C\\c1cn(S(=O)(=O)c2ccc(C)cc2)c2ccccc12"
study_target = "NCI-H322M lung"
class_name = "label 0"

[[record]]
compound = "Cn1c(=O)c2c(nc(Br)n2CCC(=O)Nc2ccc(F)cc2)n(C)c1=O"
study_target = "NCI-H322M lung"
class_name = "label 0"

[[record]]
compound = "COc1cc2c(c(OC)c1OC)CCc1cnoc1-2"
study_target = "NCI-H322M lung"
class_name = "label 0"


* * *

# Tested on: SF-295 CNS
# Assay summary: NCI-60 one-dose screen, 48 h
# Measurement parameters: 10 µM unless noted
Compounds without any hit were thinned out: in the full panel of roughly 83,000, 20% have a hit. Active and inactive are the calls of the source. How the source made its calls: active means growth percent below 10; inactive means the rest.
Outcomes: true (1) = active, false (0) = inactive

[[record]]
smiles = "Cc1cc(=O)n2n1-c1ccc(Cl)cc1NC(=O)C2"
study_target = "SF-295 CNS"
class_name = "false (0)"

[[record]]
smiles = "COC(=O)[C@]1(CCSC)N[C@H](c2cn(-c3ccccc3)nc2C)[C@@H]2C(=O)N(c3ccccc3)C(=O)[C@@H]21"
study_target = "SF-295 CNS"
class_name = "false (0)"

[[record]]
smiles = "COc1cc(NC(=O)c2cc3ccccc3cc2O)c(OC)cc1Cl"
study_target = "SF-295 CNS"
class_name = "true (1)"

[[record]]
smiles = "Cc1cc(C)n2nc(SCC(=O)Nc3sc4c(c3C(N)=O)CCC4)nc2n1"
study_target = "SF-295 CNS"
class_name = "false (0)"

[[record]]
smiles = "COc1ccc(-c2c(N)noc2-c2cc(OC)c3c(c2)OCCO3)cc1"
study_target = "SF-295 CNS"
class_name = "false (0)"


* * *

# Test system: A549/ATCC NSCLC
# Assay summary: NCI-60 one-dose screen, 48 h (100 = growth as untreated, 0 = no growth, -100 = all killed)
# Measurement parameters: 10 µM unless noted
This is part of a sample that, as a whole, favours compounds with a hit. Of some 83,000 tested, about 20% had one in any assay.
Assay readout: growth (%)

[[record]]
smiles = "O=C(OC[C@H]1O[C@H](OC(=O)c2cc(O)c(O)c(OC(=O)c3cc(O)c(O)c(O)c3)c2)[C@H](OC(=O)c2cc(O)c(O)c(OC(=O)c3cc(O)c(O)c(O)c3)c2)[C@@H](OC(=O)c2cc(O)c(O)c(OC(=O)c3cc(O)c(O)c(O)c3)c2)[C@@H]1OC(=O)c1cc(O)c(O)c(OC(=O)c2cc(O)c(O)c(O)c2)c1)c1cc(O)c(O)c(OC(=O)c2cc(O)c(O)c(O)c2)c1"
assay_readout = "growth"
unit_spec = "%"
result = 34

[[record]]
smiles = "Clc1ccc2c(Nc3ccc4oc(NCCN5CCCC5)nc4c3)ccnc2c1"
assay_readout = "growth"
unit_spec = "%"
result = 92.9

[[record]]
smiles = "O=[N+]([O-])c1cnc(Sc2ccncn2)c([N+](=O)[O-])c1"
assay_readout = "growth"
unit_spec = "%"
result = 97.6

[[record]]
smiles = "O=C1NCN(CCO)CN1"
assay_readout = "growth"
unit_spec = "%"
result = 101

[[record]]
smiles = "COc1ccc(-c2cc(Cc3cccs3)c(=O)n(Cn3cncn3)n2)cc1"
assay_readout = "growth"
unit_spec = "%"
result = 97.3

[[record]]
smiles = "Nc1ccc(C2=Nc3cccc4cccc(c34)S2)cc1"
assay_readout = "growth"
unit_spec = "%"
result = 81.5

[[record]]
smiles = "Cc1[nH]n(C(N)=S)c(=O)c1N=Nc1ccc(F)c(Cl)c1"
assay_readout = "growth"
unit_spec = "%"
result = 106

[[record]]
smiles = "COC(=O)[C@]1(CCSC)N[C@H](c2cn(-c3ccccc3)nc2C)[C@@H]2C(=O)N(c3ccccc3)C(=O)[C@@H]21"
assay_readout = "growth"
unit_spec = "%"
result = 103

